# MEASUREMENT_TARGET: Sialic acid-binding Ig-like lectin 9 (Homo sapiens)
# ASSAY_EXPLANATION: Hs-Siglec9 ALPHAscreen SOP 20170721
# Set-up: scale not given: direction of the effect not stated beside the values
# TEST_PARAMETERS: 10 µM
Measured Percent Effect by item
Units required after the number.

# example entries with known answers
>>> result("O=C(COc1coc(CN2CCOCC2)cc1=O)c1ccc(Cl)cc1")
"11%"
>>> result("Cc1nc(C(=O)N2CCCC2c2c(C)nn(C)c2C)ccc1C#N (centres undefined)")
"4.58%"
>>> result("O=C(CC1CC1)NCc1cn2c(n1)CN(CC1CC1)CC2")
"-9.15%"

# input for lookup
If you can, please state the reported Percent Effect value of Cc1nn(C)c(C)c1C1CCCN1Cc1nc(-c2ccco2)no1 (centres undefined) .
7.16%

====

# MEASUREMENT_TARGET: Tyrosyl-tRNA synthetase, putative (Trypanosoma cruzi (strain CL Brener)) (UniProt Q4DSP6)
# Sequence (Q4DSP6 as listed by the source): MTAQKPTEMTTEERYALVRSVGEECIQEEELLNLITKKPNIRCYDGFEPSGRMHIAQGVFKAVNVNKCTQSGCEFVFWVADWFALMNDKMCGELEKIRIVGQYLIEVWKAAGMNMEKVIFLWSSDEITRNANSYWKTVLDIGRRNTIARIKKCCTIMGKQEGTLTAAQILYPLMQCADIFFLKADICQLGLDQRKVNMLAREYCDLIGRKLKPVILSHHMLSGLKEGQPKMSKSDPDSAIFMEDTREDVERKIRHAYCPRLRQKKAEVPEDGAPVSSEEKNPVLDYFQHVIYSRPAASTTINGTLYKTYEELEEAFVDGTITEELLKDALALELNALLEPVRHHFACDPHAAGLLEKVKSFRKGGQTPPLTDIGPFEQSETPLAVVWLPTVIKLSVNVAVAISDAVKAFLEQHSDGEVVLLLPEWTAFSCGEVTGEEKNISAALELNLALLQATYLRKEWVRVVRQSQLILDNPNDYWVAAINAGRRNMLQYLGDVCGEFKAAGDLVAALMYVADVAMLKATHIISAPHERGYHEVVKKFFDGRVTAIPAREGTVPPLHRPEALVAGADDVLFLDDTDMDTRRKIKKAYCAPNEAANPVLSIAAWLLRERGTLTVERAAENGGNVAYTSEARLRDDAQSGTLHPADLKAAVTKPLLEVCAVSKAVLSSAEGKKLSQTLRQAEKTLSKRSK
# ASSAY_EXPLANATION: Trypanosoma cruzi tyrosyl tRNA synthetase (TcYRS) SOP
# Type: functional
# Parameters: scale not given: direction of the effect not stated beside the values
# TEST_PARAMETERS: 30 µM
Measured Percent Effect by item
Report only the number, with the unit % understood.

>>> quantitative_readout("CCN(CC1CCCO1)C(=O)Nc1ccc(F)cc1OC (configuration not stated)")
16.5
>>> quantitative_readout("O=C(CN1CCCC1Cn1cccn1)NC1CCOCC1 (configuration not stated)")
-12.2
>>> quantitative_readout("Cc1cnn(CC2CCCCN2CC(=O)NCc2ccccn2)c1 (configuration not stated)")
5.2
>>> quantitative_readout("CCc1nc(CN2CCCN(C(=O)C(C)n3ccnc3)CC2)cs1 (configuration not stated)")
9.76
>>> quantitative_readout("CC(C)(C)OC(=O)N1CCCc2ccc(NCc3ncc[nH]3)cc21")
-3.7
>>> quantitative_readout("CS(=O)(=O)c1ccc(OCCNCc2ccc(F)cc2F)cc1")
13.6
>>> quantitative_readout("CC(C(=O)Nc1ccc(N2CCCC2)nc1)n1cncn1 (configuration not stated)")
18.5
>>> quantitative_readout("CCN(CC)C(=O)CCc1c(C)nc2cc(O)nn2c1C")
7.79
>>> quantitative_readout("Cn1cc2c(n1)C(CNC(=O)Cc1ccsc1)OCC2 (configuration not stated)")
3.85
>>> quantitative_readout("CC(C(=O)N1CCCN(Cc2ccc(C#N)cc2)CC1)n1ccnc1 (configuration not stated)")
12.2

// map CN(C)[C@@H]1CCN(C(=O)c2ccsc2)[C@H]1Cc1cnn(C)c1 to recorded Percent Effect (system: Tyrosyl-tRNA synthetase, putative (Trypanosoma cruzi (strain CL Brener)) (UniProt Q4DSP6))
-1.28

// map Cc1ccc(NC(=O)N2CCOC(C)C2)cc1Cl (configuration not stated) to recorded Percent Effect (system: Tyrosyl-tRNA synthetase, putative (Trypanosoma cruzi (strain CL Brener)) (UniProt Q4DSP6))
21

====

# MEASUREMENT_TARGET: Ubiquitin-activating enzyme e1, putative (Leishmania donovani (strain BPK282A1)) (UniProt E9BSI1)
# Sequence (E9BSI1 as listed by the source): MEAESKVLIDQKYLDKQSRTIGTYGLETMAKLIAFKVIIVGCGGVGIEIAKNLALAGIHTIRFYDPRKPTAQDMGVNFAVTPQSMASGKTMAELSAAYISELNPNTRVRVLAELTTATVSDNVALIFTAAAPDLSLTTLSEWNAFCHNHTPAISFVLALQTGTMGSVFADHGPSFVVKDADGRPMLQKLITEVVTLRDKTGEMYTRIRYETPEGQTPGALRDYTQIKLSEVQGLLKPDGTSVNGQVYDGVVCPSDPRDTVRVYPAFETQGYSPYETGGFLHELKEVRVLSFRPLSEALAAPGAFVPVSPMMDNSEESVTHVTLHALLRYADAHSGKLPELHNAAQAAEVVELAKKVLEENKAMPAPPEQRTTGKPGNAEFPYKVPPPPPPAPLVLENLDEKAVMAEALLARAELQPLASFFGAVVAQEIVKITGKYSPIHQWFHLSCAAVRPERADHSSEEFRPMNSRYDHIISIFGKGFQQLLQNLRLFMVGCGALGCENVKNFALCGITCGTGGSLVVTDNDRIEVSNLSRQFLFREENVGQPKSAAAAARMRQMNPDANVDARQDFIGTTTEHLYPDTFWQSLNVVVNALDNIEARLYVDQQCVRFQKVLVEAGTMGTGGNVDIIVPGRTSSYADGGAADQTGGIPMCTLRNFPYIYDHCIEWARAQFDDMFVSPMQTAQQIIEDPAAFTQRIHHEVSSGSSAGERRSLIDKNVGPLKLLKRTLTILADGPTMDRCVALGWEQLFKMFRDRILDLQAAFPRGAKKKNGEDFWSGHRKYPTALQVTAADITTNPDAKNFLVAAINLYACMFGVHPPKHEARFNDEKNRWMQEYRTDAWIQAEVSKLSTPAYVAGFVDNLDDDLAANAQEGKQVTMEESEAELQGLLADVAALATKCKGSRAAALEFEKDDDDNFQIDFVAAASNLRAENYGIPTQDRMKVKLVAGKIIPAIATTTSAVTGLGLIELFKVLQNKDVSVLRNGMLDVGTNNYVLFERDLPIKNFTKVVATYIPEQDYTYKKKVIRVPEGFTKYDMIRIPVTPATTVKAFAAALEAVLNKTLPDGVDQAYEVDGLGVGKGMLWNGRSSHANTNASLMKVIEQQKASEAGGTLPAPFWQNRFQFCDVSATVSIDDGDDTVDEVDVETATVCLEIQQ
# ASSAY_EXPLANATION: Leishmania donovani Ubiquitin Activating Enzyme (LdE1)
# Type: functional
# Design: scale not given: direction of the effect not stated beside the values
# TEST_PARAMETERS: 30 µM
Results with a measured potency or affinity are listed apart.
PARAMETER_MEASURED: Percent Effect (%)
Report only the number, with the unit % understood.

# example entries with known answers
>>> quantitative_readout("Cn1ncc2c1NC(=O)CC2c1ccc(Cl)cc1Cl (centres undefined)")
2.63
>>> quantitative_readout("Cc1ncsc1-c1nnc(C2CCN(Cc3ccc(F)cc3)CC2)o1")
-4.05
>>> quantitative_readout("Cc1ccc(N2CC[C@H](OCC3CC3)[C@@H]2Cc2cnn(C)c2)nn1")
5.41
>>> quantitative_readout("Fc1cccc(N2C[C@H]3CCN(c4cccnc4)C[C@H]3C2)c1")
-27

If you can, please state the reported Percent Effect value of Cc1cnn(CCNCc2csc(-c3cccs3)n2)c1 .
-2.63

If you can, please state the reported Percent Effect value of CC1=N[C@@]2(CC[C@@H]3CN(S(=O)(=O)CC(C)C)C[C@@H]32)C(=O)N1CC(C)C .
5.41

If you can, please state the reported Percent Effect value of CC(C)C(=O)N1CCN(C(=O)c2cc(C(C)C)on2)[C@H]2CS(=O)(=O)C[C@H]21 .
18.1

If you can, please state the reported Percent Effect value of CCOC(=O)c1sc2ccsc2c1CNC(=O)CC .
16.2

If you can, please state the reported Percent Effect value of CCOc1cc(/C=C/c2ncc(C(=O)O)s2)ccc1O .
11.4

If you can, please state the reported Percent Effect value of O=C(CCc1cccnc1)N(Cc1ccsc1)CC1CCCO1 (centres undefined) .
-2.7

If you can, please state the reported Percent Effect value of O=C(c1cn(-c2ccccc2Cl)nn1)N1CCCSCC1 .
16.2

If you can, please state the reported Percent Effect value of CCc1ncc2c(n1)CN(Cc1nc(C)c(C)o1)CC2 .
2.74

If you can, please state the reported Percent Effect value of O=C(CCc1cc2n(n1)CCCN(C(=O)c1cccnc1)C2)NC1CC1 .
4.17

If you can, please state the reported Percent Effect value of CC(C)(C)c1nc(CN2CCCC(Cn3cncn3)C2)cs1 (centres undefined) .
21.6

If you can, please state the reported Percent Effect value of O=C1COC2(CCN(CC3CC3)CC2)CN1c1ccccc1 .
2.74

If you can, please state the reported Percent Effect value of c1cnc(N2CCC3(CCN(Cc4ccncc4)CC3)CC2)nc1 .
0

If you can, please state the reported Percent Effect value of Cc1cc(CNC(=O)NC(C)c2ccc(N3CCOCC3)cc2)no1 (centres undefined) .
10.4

====

# MEASUREMENT_TARGET: Arginase-2, mitochondrial (Homo sapiens)
# ASSAY_EXPLANATION: in vitro enzyme assay to detect the production of urea directly proportional to the activity of Arginase II; also: in the data most compounds retested in dose-response had high values
# Type: functional
# Set-up: scale not given: direction of the effect not stated beside the values
# TEST_PARAMETERS: 33.3 µM
Measured Percent Effect by item
Units required after the number.

// map Cc1cc(C(=O)N2CCc3nnc(N)cc3C2)c(C)n1-c1cccnc1 to recorded Percent Effect (system: Arginase-2, mitochondrial (Homo sapiens))
-2.37%

// map c1cnc(N2CCOC3(CCN(CC4CCCCC4)CC3)C2)nc1 to recorded Percent Effect (system: Arginase-2, mitochondrial (Homo sapiens))
-2.1%

// map Cc1cc(CNC(=O)NC(C)c2ccc(N3CCOCC3)cc2)no1 (centres undefined) to recorded Percent Effect (system: Arginase-2, mitochondrial (Homo sapiens))
-6.9%

// map Cc1cccc(CC(=O)NCCCOC(C)C)c1 to recorded Percent Effect (system: Arginase-2, mitochondrial (Homo sapiens))
0.712%

// map O=C(O)c1ccc(F)c(S(=O)(=O)Nc2ccc(-n3cccn3)c(Cl)c2)c1 to recorded Percent Effect (system: Arginase-2, mitochondrial (Homo sapiens))
0%

// map O=C(c1cnn(-c2ccccc2F)c1)N1CCN(CCO)CC1 to recorded Percent Effect (system: Arginase-2, mitochondrial (Homo sapiens))
16.1%

// map Cc1cc(=O)n(CC(=O)Nc2ccc(C(N)=O)cc2)nc1C to recorded Percent Effect (system: Arginase-2, mitochondrial (Homo sapiens))
0.952%

// map CCc1nc(C2CCCN2C(=O)CCNS(C)(=O)=O)no1 (centres undefined) to recorded Percent Effect (system: Arginase-2, mitochondrial (Homo sapiens))
-2.03%

// map O=C1CO[C@@H]2CN(S(=O)(=O)c3ccccc3)C[C@H]2N1CC1CC1 to recorded Percent Effect (system: Arginase-2, mitochondrial (Homo sapiens))
-44.3%

====

Measured Percent Effect by item
# MEASUREMENT_TARGET: Proteasome subunit beta (Trypanosoma cruzi) (UniProt O96673)
# Sequence (O96673 as listed by the source): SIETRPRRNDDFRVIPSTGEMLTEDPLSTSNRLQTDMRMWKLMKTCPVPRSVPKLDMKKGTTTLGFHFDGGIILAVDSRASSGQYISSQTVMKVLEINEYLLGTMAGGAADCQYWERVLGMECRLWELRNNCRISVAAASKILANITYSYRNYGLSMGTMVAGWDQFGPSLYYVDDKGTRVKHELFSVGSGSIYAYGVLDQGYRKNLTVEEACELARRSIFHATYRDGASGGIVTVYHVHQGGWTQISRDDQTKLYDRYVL
# ASSAY_EXPLANATION: Trypanosoma cruzi proteasome chymotrypsin-like activity (TcProtChymo) assay. Also: in the data most compounds retested in dose-response had high values.
# Type: functional
# Set-up: scale not given: direction of the effect not stated beside the values
# TEST_PARAMETERS: 9.37 µM
Report only the number, with the unit % understood.

# example entries with known answers
>>> quantitative_readout("c1csc(-c2nc(CN3CCCC3Cn3cncn3)co2)c1 (stereo unspecified)")
5.68
>>> quantitative_readout("O=C1COC2(CCN(Cc3ccccn3)CC2)CN1CC1CC1")
-3.13
>>> quantitative_readout("Cc1nc(CN2CCN(C(=O)c3cc(C4CC4)on3)CC2)cs1")
4.45
>>> quantitative_readout("COCC1CN(C(=O)C2=CCCCC2)Cc2cnn(CC3CC3)c21 (stereo unspecified)")
10.1
>>> quantitative_readout("Cc1cnn(CCNCc2csc(-c3cccs3)n2)c1")
13.7

If you can, please state the reported Percent Effect value of COCCN(Cc1ccoc1)C(=O)c1c(F)cccc1Cl .
2.44

====

Measured Percent Effect by item
# Species on record: Homo sapiens
# ASSAY_EXPLANATION: To identify inhibition of the IFN signalling (Jak-Stat) pathway via expression of an eGFP reporter gene under the control of an IFN-stimulated response element (ISRE) containing MxA promoter.
# Type: functional
# Set-up: scale not given: direction of the effect not stated beside the values
# TEST_PARAMETERS: 30 µM
Report only the number, with the unit % understood.

>>> quantitative_readout("CCc1noc(C2CCCCN2C(=O)c2ccoc2C)n1 (stereo unspecified)")
-6.22
>>> quantitative_readout("CN1CCCN(C[C@@H]2CN(C(=O)CCC3CCCC3)C[C@@H]2CO)CC1")
-0.683
>>> quantitative_readout("O=C1N(Cc2cccc(F)c2F)CCCC1(O)CN1CCCOCC1 (stereo unspecified)")
5.93
>>> quantitative_readout("CN(c1ccncn1)C1CC2(CCN(C(=O)CCc3cccs3)C2)C1 (stereo unspecified)")
39.7
>>> quantitative_readout("CC(NC(=O)CNCCn1cccn1)c1ccc2c(c1)CCCC2 (stereo unspecified)")
-3.61

If you can, please state the reported Percent Effect value of Cc1noc(NC(=O)c2ccc(C)c(F)c2)n1 .
64

If you can, please state the reported Percent Effect value of COCC1CC2(CCN(C(=O)c3ccc(OC)c(Cl)c3)CC2)CO1 (stereo unspecified) .
15.9

If you can, please state the reported Percent Effect value of COc1ccc([C@@H]2CN(C(=O)CCC(F)(F)F)C[C@H]2NC(C)=O)cc1 .
1.55
